Please go through the items and note down their self-splicing fitness (ln).
experiment-summary: self-splicing fitness, log relative to wild type (ln ratio); higher = more splicing; Tetrahymena group I intron in knt gene, E. coli kanamycin selection, DiMSum; sequences stand for … in CUCUCU…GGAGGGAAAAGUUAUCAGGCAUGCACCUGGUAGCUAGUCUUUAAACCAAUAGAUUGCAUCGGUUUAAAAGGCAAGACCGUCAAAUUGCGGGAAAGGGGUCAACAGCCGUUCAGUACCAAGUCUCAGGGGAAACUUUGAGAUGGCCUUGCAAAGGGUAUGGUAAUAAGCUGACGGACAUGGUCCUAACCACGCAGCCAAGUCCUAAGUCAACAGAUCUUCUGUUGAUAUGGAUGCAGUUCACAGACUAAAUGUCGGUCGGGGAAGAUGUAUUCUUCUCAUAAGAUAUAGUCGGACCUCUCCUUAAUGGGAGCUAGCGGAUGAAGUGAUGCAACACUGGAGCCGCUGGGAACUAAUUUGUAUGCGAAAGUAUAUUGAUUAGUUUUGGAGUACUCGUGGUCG;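 also: selection with 25 µg/mL kanamycin versus none on LB agar overnight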
measurement-parameters: 30 °C

CCGCAGCAAUAUUACGUUAA: -3.03
AACAAGCAAUAUUACGUGAC: -2.94
CUGAAGCAAUAUUACGCAGU: -3.09

Below are 3 sequences. Give each one its self-splicing fitness (ln).
1. AAGGAGCAAUAUUACGGGCU
2. UUCUAGCAAUAUUACGUUGA
3. UCCAAGCAAUAUUACGCAUC

-2.94
-3.03
-3.02

* * *

experiment-summary: self-splicing fitness, log relative to wild type (ln ratio); higher = more splicing; Tetrahymena group I intron in knt gene, E. coli kanamycin selection, DiMSum; sequences stand for … in CUCUCU…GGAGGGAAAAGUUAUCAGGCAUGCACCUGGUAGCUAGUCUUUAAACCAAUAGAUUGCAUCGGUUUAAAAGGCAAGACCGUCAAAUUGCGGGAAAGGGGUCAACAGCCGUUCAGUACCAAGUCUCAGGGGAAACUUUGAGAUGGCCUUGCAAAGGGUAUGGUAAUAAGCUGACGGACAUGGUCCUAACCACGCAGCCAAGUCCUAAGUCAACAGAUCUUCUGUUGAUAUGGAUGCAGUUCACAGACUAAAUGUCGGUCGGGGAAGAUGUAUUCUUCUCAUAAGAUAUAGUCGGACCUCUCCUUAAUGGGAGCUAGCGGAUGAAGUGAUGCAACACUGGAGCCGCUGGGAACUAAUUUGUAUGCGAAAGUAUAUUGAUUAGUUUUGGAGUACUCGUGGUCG
measurement-parameters: 37 °C
Threshold check on self-splicing fitness (ln): at or above -2 gives 1.0, strictly below gives 0.0.

CAUGAGCAAUAUUACGUGUC: 1.0
CCCUAGCAAUAUUACGCAGA: 1.0

Kindly determine if self-splicing fitness (ln) recorded for UUCAAGCAAUAUUACGGCGA is above or exactly -2.
1.0

Kindly determine if self-splicing fitness (ln) recorded for GAGUAGCAAUAUUACGGUAA is above or exactly -2.
1.0

* * *

Please go through the items and note down their self-splicing fitness (ln).
experiment-summary: self-splicing fitness, log relative to wild type (ln ratio); higher = more splicing; Tetrahymena group I intron in knt gene, E. coli kanamycin selection, DiMSum; sequences stand for … in CUCUCU…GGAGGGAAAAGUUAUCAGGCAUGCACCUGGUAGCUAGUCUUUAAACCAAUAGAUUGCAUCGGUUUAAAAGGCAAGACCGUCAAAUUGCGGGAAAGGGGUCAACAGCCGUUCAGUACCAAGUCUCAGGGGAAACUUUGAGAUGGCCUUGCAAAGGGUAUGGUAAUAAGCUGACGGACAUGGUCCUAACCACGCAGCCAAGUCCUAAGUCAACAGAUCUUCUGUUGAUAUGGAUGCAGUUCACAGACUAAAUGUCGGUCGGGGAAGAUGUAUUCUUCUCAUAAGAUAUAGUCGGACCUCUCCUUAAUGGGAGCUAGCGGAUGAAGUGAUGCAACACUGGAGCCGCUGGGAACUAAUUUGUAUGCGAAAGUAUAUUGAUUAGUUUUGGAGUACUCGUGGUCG
measurement-parameters: 30 °C
Numbers only.

Answered cases to consult:
UAACAGCAAUAUUACGUCUC: -3.01
CACGAGCAAUAUUACGUAGC: -2.94
UUCUAGCAAUAUUACGGUAG: -2.29

Below are 4 sequences. Give each one its self-splicing fitness (ln).
1. AGCUAGCAAUAUUACGACUC
2. GUUAAGCAAUAUUACGUGGG
3. UAAGAGCAAUAUUACGCUGG
4. UCAGAGCAAUAUUACGAAAG

1: -2.01; 2: -2.87; 3: -2.31; 4: -2.84

Below are 2 sequences. Give each one its self-splicing fitness (ln).
1. GUUAAGCAAUAUUACGAUUA
2. AUUCAGCAAUAUUACGGAGC

1. -1.04
2. -2.82

* * *

experiment-summary: self-splicing fitness, log relative to wild type (ln ratio); higher = more splicing; Tetrahymena group I intron in knt gene, E. coli kanamycin selection, DiMSum; sequences stand for … in CUCUCU…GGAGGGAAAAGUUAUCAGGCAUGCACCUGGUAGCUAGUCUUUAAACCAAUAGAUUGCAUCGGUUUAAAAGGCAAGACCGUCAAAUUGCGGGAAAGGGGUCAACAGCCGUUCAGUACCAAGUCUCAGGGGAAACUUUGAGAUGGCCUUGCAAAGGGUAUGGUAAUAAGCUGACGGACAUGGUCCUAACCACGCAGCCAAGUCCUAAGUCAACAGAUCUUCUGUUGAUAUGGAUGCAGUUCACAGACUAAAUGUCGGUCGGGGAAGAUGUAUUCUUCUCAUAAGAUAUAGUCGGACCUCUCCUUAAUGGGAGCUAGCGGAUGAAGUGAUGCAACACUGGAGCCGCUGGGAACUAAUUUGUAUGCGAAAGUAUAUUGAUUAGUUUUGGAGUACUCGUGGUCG
measurement-parameters: 37 °C
Threshold check on self-splicing fitness (ln): at or above -1 gives 1, strictly below gives 0.

Kindly determine if self-splicing fitness (ln) recorded for ACAAAGCAAUAUUACGUAUC is above or exactly -1.
0

Kindly determine if self-splicing fitness (ln) recorded for CACUAGCAAUAUUACGUCAC is above or exactly -1.
0

Kindly determine if self-splicing fitness (ln) recorded for CGGAAGCAAUAUUACGUAAG is above or exactly -1.
1

Kindly determine if self-splicing fitness (ln) recorded for ACGAAGCAAUAUUACGGUGC is above or exactly -1.
0

Kindly determine if self-splicing fitness (ln) recorded for AUAAAGCAAUAUUACGGGAG is above or exactly -1.
0

Kindly determine if self-splicing fitness (ln) recorded for GUGAAGCAAUAUUACGAUUC is above or exactly -1.
1

Kindly determine if self-splicing fitness (ln) recorded for AACUAGCAAUAUUACGGCUG is above or exactly -1.
1

Kindly determine if self-splicing fitness (ln) recorded for UACGAGCAAUAUUACGGCAG is above or exactly -1.
0

Kindly determine if self-splicing fitness (ln) recorded for AGCCAGCAAUAUUACGAACU is above or exactly -1.
1

* * *

Please go through the items and note down their self-splicing fitness (ln).
experiment-summary: self-splicing fitness, log relative to wild type (ln ratio); higher = more splicing; Tetrahymena group I intron in knt gene, E. coli kanamycin selection, DiMSum; sequences stand for … in CUCUCU…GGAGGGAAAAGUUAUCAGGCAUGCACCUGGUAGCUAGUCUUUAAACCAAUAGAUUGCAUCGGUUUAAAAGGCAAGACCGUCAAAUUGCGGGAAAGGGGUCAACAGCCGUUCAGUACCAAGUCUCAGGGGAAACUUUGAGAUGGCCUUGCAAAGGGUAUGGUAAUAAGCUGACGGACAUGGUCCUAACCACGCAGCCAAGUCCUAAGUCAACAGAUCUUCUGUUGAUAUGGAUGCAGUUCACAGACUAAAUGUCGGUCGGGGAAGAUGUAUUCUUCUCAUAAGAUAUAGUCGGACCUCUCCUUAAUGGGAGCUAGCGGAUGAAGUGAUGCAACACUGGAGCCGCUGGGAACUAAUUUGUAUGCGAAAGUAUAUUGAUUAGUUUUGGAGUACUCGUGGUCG
measurement-parameters: 37 °C
Answers are plain numbers.

GUGGAGCAAUAUUACGCACG: -2.32
UUGGAGCAAUAUUACGCUAG: -1.64
GUAGAGCAAUAUUACGAUCC: -0.765
CAUUAGCAAUAUUACGGACG: 0.364
UUUGAGCAAUAUUACGUUAU: -1.9

Below are 3 sequences. Give each one its self-splicing fitness (ln).
1. UUACAGCAAUAUUACGCGGU
2. GGUAAGCAAUAUUACGGGAA
3. AGGUAGCAAUAUUACGGCGU

1: -3.15; 2: -2.06; 3: 0.231

Below are 2 sequences. Give each one its self-splicing fitness (ln).
1. GUCAAGCAAUAUUACGCACG
2. CUGAAGCAAUAUUACGCAGU

1. -1.49
2. -3.23

Below are 3 sequences. Give each one its self-splicing fitness (ln).
1. GAUAAGCAAUAUUACGGCAG
2. CCCUAGCAAUAUUACGAACA
3. GGGCAGCAAUAUUACGCGAG

1. -2.51
2. -2.55
3. -0.664
